As shown below, each of these molecules has a reported ΔHVH value.
molecular target: SHV K234R β-lactamase (Klebsiella pneumoniae, UniProt P0AD64, K230R); assay: Far-UV circular dichroism and thermal denaturation in the presence of inhibitors; details: K234R 10 µM with 50 µM inhibitor; van't Hoff plot
Return type: number; implicit unit kcal/mol.

Below are worked cases with known answers.
C[C@]1(Cn2ccnn2)[C@H](C(=O)O)N2C(=O)C[C@H]2S1(=O)=O [Tazobactam, tazobactam] : 114
O=C(Cc1cccs1)NCB(O)O [Achiral Cephalothin BATSI] : 100
N[C@@H](C(=O)N[C@@H](Cc1cccc(C(=O)O)c1)B(O)O)c1ccccc1 [Chiral Ampicillin BATSI] : 119

Could you now look at the following molecule, please?
Enquiry: Test system SHV K234R β-lactamase (Klebsiella pneumoniae, UniProt P0AD64, K230R); read-out ΔHVH; what value for O=C(O)[C@H]1/C(=C/CO)O[C@@H]2CC(=O)N21 [Clavulanate, clavulanate] ?
Return: 68
